Data origin, for the record: BindingDB's records for doi:10.1002/1439-7633(20020902)3:9

system: Inositol-trisphosphate 3-kinase A (Homo sapiens, UniProt P23677)
Sequence (P23677 whole entry): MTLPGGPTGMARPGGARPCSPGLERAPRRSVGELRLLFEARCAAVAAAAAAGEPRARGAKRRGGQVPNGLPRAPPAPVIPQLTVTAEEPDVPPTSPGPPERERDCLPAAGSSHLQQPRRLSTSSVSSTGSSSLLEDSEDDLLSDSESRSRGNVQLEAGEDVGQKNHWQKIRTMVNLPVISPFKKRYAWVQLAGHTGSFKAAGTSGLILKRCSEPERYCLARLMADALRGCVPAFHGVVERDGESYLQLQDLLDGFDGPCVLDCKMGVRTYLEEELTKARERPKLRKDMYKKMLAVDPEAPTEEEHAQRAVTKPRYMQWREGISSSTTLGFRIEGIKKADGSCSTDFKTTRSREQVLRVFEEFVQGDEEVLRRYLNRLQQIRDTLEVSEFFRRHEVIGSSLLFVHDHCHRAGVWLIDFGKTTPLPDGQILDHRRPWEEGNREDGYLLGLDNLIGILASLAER
observedProperty: Ki (µM)
Numbers only, in µM.

Field Ki (entry `O=[N+]([O-])c1ccc(CNc2nc(NCc3cccc(C(F)(F)F)c3)nc3[nH]cnc23)cc1` ) reads 4.3

* * *

pIC50, Inositol-trisphosphate 3-kinase A (Homo sapiens): measured values
One number for each entry, as −log10 of the molar value.

// known answers, use as guide
{"compound": "O=[N+]([O-])c1ccc(CNc2nc(NCc3ccccc3C(F)(F)F)nc3nc[nH]c23)cc1 [Purine, 17]", "pIC50": 4.74}
{"compound": "c1ccc(CNc2nc(NCc3ccc4ccccc4c3)nc3nc[nH]c23)cc1 [Purine, 13]", "pIC50": 4.20}
{"compound": "Clc1ccc(CNc2nc(NCc3ccccc3)c3[nH]cnc3n2)cc1 [Purine, 7]", "pIC50": 3.86}

Field pIC50 (entry Clc1ccc(CNc2nc(Nc3ccccc3)c3[nH]cnc3n2)cc1 [Purine, 10] ) reads 3.82
